Reported melting point values for the following compounds.

Recorded melting point, per entry:
In [3]: df
Out[3]:
                                   molecule  measurement_kind       reported
0  FC(F)(F)c1ccc(-c2ccccc2)c(Oc2ccc3nnc(Cl)n3n2)c1     melting point       138.9 °C
1  Clc1nnc2ccc(Oc3cc(CN4CCCCC4)ccc3-c3ccccc3)nn12     melting point  163 to 164 °C
2  CCCCNc1ccc(Oc2ccc3nnc(Cl)n3n2)c(-c2ccccc2)c1     melting point    85 to 88 °C
3  Fc1ccc(Oc2ccc3nnc(Cl)n3n2)c(-c2ccc(Cl)cc2)c1     melting point         172 °C
4  FC(F)(F)c1ccc(CN2CCOCC2)c(Oc2ccc3nnc(Cl)n3n2)c1     melting point    55 to 58 °C
5  COc1ncccc1-c1ccc(C(F)(F)F)cc1Oc1cc(C)c2nnc(Cl)n2n1     melting point  156 to 158 °C
6  COc1ncc(-c2cc(Cl)ccc2Oc2nn3c(Cl)nnc3cc2C)cn1     melting point  189 to 192 °C
7  COc1ncc(F)cc1-c1ccc(C(F)(F)F)cc1Oc1nn2c(Cl)nnc2cc1C     melting point  163 to 166 °C

Could you now look at the following compound, please?
Request: Give the measured melting point of Cc1cccc(-c2ccccc2Oc2ccc3nnc(Cl)n3n2)c1 .
Result: 51 °C
